tested system: T1, phycoerythrin (PE)-conjugated BCMA (Recombinant Human TNFRSF17 protein, Fc/His-tagged, R-PE labeled); Creative … (human, UniProt Q02223 1-54, R-PE labeled)
T1 construct: Bought reagent; also called BCMA-PE; not shown: Fc/His tag of the bought reagent
T1 sequence: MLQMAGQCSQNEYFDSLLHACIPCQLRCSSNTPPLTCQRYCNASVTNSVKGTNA
assay details: flow cytometry; CAR T cells stained with BCMA-PE, 3 days after electroporation
experimental endpoint: BCMA Binding (relative to SEQ ID: 48)

Some binders with known BCMA Binding (relative to SEQ ID: 48) results, for comparison:
| binder | readout value |
| --- | --- |
| CAR comprising scFv-Yi2 (SEQ ID NO: 55) (other, CAR on mRNA-electroporated human CD8+ T cells; Only the scFv is identified; not shown: rest of the CAR (hinge, transmembrane, cytoplasmic domains) not specified for this construct) DIQLTQSPSSLSASVGDRVTITCRASQSVTILGSHLIHWYQQKPGKAPKLLIQLASNVQTGVPSRFSGSGSGTDFTLTISSLQPEDVATYYCLQSRTIPRTFGQGTKLEIKGSTSGSGKPGSGEGSTKGQVQLVQSGGGLVQPGRSVKLSCAASGYTFTDYSINWVRQAPGKGLEWVGWINTETREPAYAYDFRGRFTISRDTSKNTAYLQMNSLRAEDTAVYYCARDYSYAMDYWGQGTLVTVSS | 12 relative to SEQ ID: 48 = 100 |
| CAR comprising scFv-J4 (SEQ ID NO: 52) (other, CAR on mRNA-electroporated human CD8+ T cells; Only the scFv is identified; not shown: rest of the CAR (hinge, transmembrane, cytoplasmic domains) not specified for this construct) DIVMTQSPDSLSVSLGERATINCRASESVTILGSHLIHWYQQKPGQPPKLLIQLASNVQTGVPDRFSGSGSGTDFTLTISSLQAEDVAVYYCLQSRTIPRTFGGGTKVEIKGSTSGSGKPGSGEGSTKGQIQLVQSGAEVKKPGESVKISCKASGYTFTDYSINWVRQAPGQGLKWMGWINTETREPAYAYDFRGRFAFSLDTSASTAYLQISSLKAEDTAVYFCALDYSYAMDYWGQGTLVTVSS | 82 relative to SEQ ID: 48 = 100 |

Okay, now this binder:
Query CAR comprising scFv-Yi1 (SEQ ID NO: 54) (other, CAR on mRNA-electroporated human CD8+ T cells; not shown: rest of the CAR (hinge, transmembrane, cytoplasmic domains) not specified for this construct) DIVLTQSPSSLSASVGDRATISCRASESVTILGSHLIHWYQQKPGQAPKLLIQLASNVQTGVPARFSGSGSGTDFTLTISSVEPDDVAVYYCLQSRTIPRTFGGGTKLEIKGSTSGSGKPGSGEGSTKGQIQLVQSGPELKKPGGSVKISCAASGYTFTDYSINWVKQAPGKGLEWVGWINTETREPAYAYDFRGRFTFSLDTSKSTAYLQMNSLRAEDTAVYYCALDYSYAMDYWGQGTLVTVSS yields BCMA Binding (relative to SEQ ID: 48) of 141 relative to SEQ ID: 48 = 100

Origin of the recorded values: patent US20220089678A1
